Where do these numbers come from? They come from the supplement of paper PMC10567573.

# Lookup of reported protein stability index keyed by entry
B1: STX5 (parent)
chain: ESTIVELGSIFQQLAHMVKEQEET

Variants of: B1
Assay: protein stability index of a GFP-peptide fusion (GPS, HEK-293T) (PSI 1-6); higher = more stable;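 also: lentivirally expressed fusions sorted by FACS into six bins by GFP to DsRed ratio, PSI derived from sequencing read proportions per bin multiplied by bin number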
Conditions: c terminus: a fixed tail appended

biopolymer sequence: ESTIVELGSIFLQLAHMVKEQEET [Q12L]
protein stability index: 3.46

biopolymer sequence: ESTIVELGSDFQQLAHMVKEQEET [I10D]
protein stability index: 5.88

biopolymer sequence: ESTIVELGIIFQQLAHMVKEQEET [S9I]
protein stability index: 1.32

biopolymer sequence: ESTIPELGSIFQQLAHMVKEQEET [V5P]
protein stability index: 3.5

biopolymer sequence: EETIVELGSIFQQLAHMVKEQEET [S2E]
protein stability index: 2.62

biopolymer sequence: ESTIVELGSIFQQLAHMEKEQEET [V18E]
protein stability index: 4.64

biopolymer sequence: ESTFVELGSIFQQLAHMVKEQEET [I4F]
protein stability index: 2.29

biopolymer sequence: ESRIVELGSIFQQLAHMVKEQEET [T3R]
protein stability index: 3.19

biopolymer sequence: ESTICELGSIFQQLAHMVKEQEET [V5C]
protein stability index: 2.58

biopolymer sequence: ESTIVELGSIFQQLAHMFKEQEET [V18F]
protein stability index: 1.81

biopolymer sequence: ESTIVELGSIFQQLAHMVKEQCET [E22C]
protein stability index: 2.4

biopolymer sequence: ESTIVELGSIFQQLAHPVKEQEET [M17P]
protein stability index: 4.59

biopolymer sequence: ESTIVELGSIYQQLAHMVKEQEET [F11Y]
protein stability index: 3.19

biopolymer sequence: ESTIAELGSIFQQLAHMVKEQEET [V5A]
protein stability index: 2.28

biopolymer sequence: ESTLVELGSIFQQLAHMVKEQEET [I4L]
protein stability index: 1.81
